# test system: coagulation factor Xa (FXa) (Bos taurus, UniProt P00743)
# Construct: purchased New England Biolabs (Hitchin, UK)
# Sequence (P00743 41-180): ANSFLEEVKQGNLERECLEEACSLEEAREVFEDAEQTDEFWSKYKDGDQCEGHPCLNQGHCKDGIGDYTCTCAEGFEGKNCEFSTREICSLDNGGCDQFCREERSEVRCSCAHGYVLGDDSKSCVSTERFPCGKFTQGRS
# Sequence (P00743 234-492): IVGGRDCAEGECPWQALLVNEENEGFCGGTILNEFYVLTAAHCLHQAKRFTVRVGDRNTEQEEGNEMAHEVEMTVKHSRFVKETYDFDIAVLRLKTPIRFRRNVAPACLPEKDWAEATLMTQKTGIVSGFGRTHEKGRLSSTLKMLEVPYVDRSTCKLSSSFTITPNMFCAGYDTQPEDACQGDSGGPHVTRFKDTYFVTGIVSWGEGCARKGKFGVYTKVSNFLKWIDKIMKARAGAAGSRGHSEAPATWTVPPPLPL
# assay comment: FXa activity assay in vitro (chromogenic substrate method)
# Assay type: biochemical
# test settings: FXa 0.5 nM, pH 7.4, 37 °C, OD 405 nm; read-out: IC50 against coagulation factor Xa (FXa)
pIC50: −log10 of the molar value.
We begin with a simple list: items and their reported pIC50.

compound	pIC50
CC(C)=CCCC(C)(O)C1CCC2(C)C1C(O)CC1C3(C)CCC(O)C(C)(C)C3C(O)CC12C (stereo not shown)	6.85
CC(C)=CCCC(C)(O)C1CCC2(C)C1C(O)CC1C3(C)CCC(O)C(C)(C)C3CCC12C (stereo not shown)	6.47
CC(C)=CCC[C@](C)(O[C@@H]1O[C@H](CO)[C@@H](O)[C@H](O)[C@H]1O)[C@H]1CC[C@]2(C)[C@@H]1[C@H](O)C[C@@H]1[C@@]3(C)CC[C@H](O[C@@H]4O[C@H](CO)[C@@H](O)[C@H](O)[C@H]4O)C(C)(C)[C@@H]3CC[C@]12C [F2, ginsenoside F2]	6.37
CC(C)=CCC[C@](C)(O[C@@H]1O[C@H](CO)[C@@H](O)[C@H](O)[C@H]1O)[C@H]1CC[C@]2(C)[C@@H]1[C@H](O)C[C@@H]1[C@@]3(C)CC[C@H](O)C(C)(C)[C@@H]3[C@@H](O[C@@H]3O[C@H](CO)[C@@H](O)[C@H](O)[C@H]3O)C[C@]12C [Rg1, ginsenoside Rg1]	6.48

----------
# test system: coagulation factor Xa (FXa) (Bos taurus, UniProt P00743)
# Construct: purchased New England Biolabs (Hitchin, UK)
# assay comment: FXa activity assay in vitro (chromogenic substrate method)
# Format: biochemical
# test settings: FXa 0.5 nM, pH 7.4, 37 °C, OD 405 nm; read-out: IC50 against coagulation factor Xa (FXa)
# Protocol: 10 µL of FXa (final concentration of 0.5 nM), 40 µL of Tris buffer (adjusted to pH 7.4 with HCl containing 0.3 M NaCl and 50 mM Tris) and 10 µL of test compounds were added to the well, respectively. […] The optical density (OD) values at 405 nm were evaluated by an automated microplate reader. […] Inhibition rate was calculated by the following formula: Anti-FXa activity = (V0 − Vi)/V0 [21]. The IC50 value was subsequently calculated by SPSS 19.0.
pIC50: −log10 of the molar value.
assay metric: pIC50

compound	assay result
CC(C)=CCC[C@](C)(O)[C@H]1CC[C@]2(C)[C@@H]1[C@H](O)C[C@@H]1[C@@]3(C)CC[C@H](O)C(C)(C)[C@@H]3[C@@H](O[C@@H]3O[C@H](CO)[C@@H](O)[C@H](O)[C@H]3O[C@@H]3O[C@@H](C)[C@H](O)[C@@H](O)[C@H]3O)C[C@]12C [Rg2, ginsenoside Rg2]	6.87
CC(C)=CCC[C@](C)(O)[C@H]1CC[C@]2(C)[C@@H]1[C@H](O)C[C@@H]1[C@@]3(C)CC[C@H](O)C(C)(C)[C@@H]3[C@@H](O[C@@H]3O[C@H](CO)[C@@H](O)[C@H](O)[C@H]3O[C@@H]3O[C@H](CO)[C@@H](O)[C@H](O)[C@H]3O)C[C@]12C [Rf, ginsenoside Rf]	5.99
CC(C)=CCC[C@](C)(O[C@@H]1O[C@H](CO)[C@@H](O)[C@H](O)[C@H]1O)[C@H]1CC[C@]2(C)[C@@H]1[C@H](O)C[C@@H]1[C@@]3(C)CC[C@H](O)C(C)(C)[C@@H]3[C@@H](O)C[C@]12C [F1, ginsenoside F1]	6.64
